Where do these numbers come from? They come from patent US12091446.

- target_desc: SARS-COV-2 spike, Delta variant (B.1.617.2) (SARS-COV-2, UniProt P0DTC2 14-1273)
- experiment_description: cell-based or functional assay
Exercise: state measured EC50, neutralization of spike pseudotyped virus for each of the binders provided.
Numbers only here, please. The scale is nM.

// EC50, neutralization of spike pseudotyped virus lookup, key: AP1D4 Nb-huFc (Fc fusion) EVQLQASGGGFVQPGGSLRLSCAASGHTFDAHRMGWFRQAPGKEREFVSAISSWGQSSTYYADSVKGRFTISRDNSKNTVYLQMNSLRAEDTATYYCAQTDEGNQYVYWGQGTQVTVSS 758

Do the same for AP1A5 Nb-huFc (Fc fusion) EVQLQASGGGFVQPGGSLRLSCAASGSTASHYTMGWFRQAPGKEREFVSAISSGRDHAKQYADSVKGRFTISRDNSKNTVYLQMNSLRAEDTATYYCAYEEINATQKDTLYWGQGTQVTVSS please 73.3

Note, next up: BP2A6 Nb-huFc (Fc fusion) EVQLQASGGGFVQPGGSLRLSCAASGQTFSHYIMGWFRQAPGKEREFVSAISAGQGHATYYADSVKGRFTISRDNSKNTVYLQMNSLRAEDTATYYCAKYQDTIAPLYWGQGTQVTVSS 875

How about AP1B6 Nb-huFc (Fc fusion) EVQLQASGGGFVQPGGSLRLSCAASGSAFQIYAMGWFRQAPGKEREFVSAISSTDSETDHYADSVKGRFTISRDNSKNTVYLQMNSLRAEDTATYYCAVNGFDYAHSKAGPQVYWGQGTQVTVSS ? 586

Moving on to AP1C3 Nb-huFc (Fc fusion) EVQLQASGGGFVQPGGSLRLSCAASGRTYRGYSMGWFRQAPGKEREFVSAISSWSDDWTAYADSVKGRFTISRDNSKNTVYLQMNSLRAEDTATYYCAWQYIDEIQYYWGQGTQVTVSS 191
